B1: Osa-1-4 twister ribozyme (parent)
chain: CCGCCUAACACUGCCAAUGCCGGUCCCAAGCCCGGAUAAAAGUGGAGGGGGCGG

Variants of: B1
protocol: self-cleavage, relative activity (ratio to wild type); higher = more cleavage; co-transcriptional
Note to self: values exactly at 0.07 are class 1. So self-cleavage at or above 0.07 is class 1, below is class 0.

| mutant code | label value |
| --- | --- |
| C25G G42U | class 0 |
| A36G C9A | class 1 |
| G30U G44C | class 0 |
| A40U G53A | class 1 |
| C25U C26G | class 1 |
| G22U U12G | class 0 |
| C31A G44C | class 0 |
| C14A C32U | class 0 |
| G35C G44A | class 1 |
| A46G C9U | class 0 |
| A16C G47A | class 1 |
| C20A G48A | class 1 |
| A38C G13C | class 0 |
| G23C G35U | class 0 |
| A10G U37A | class 1 |
| A39G G47C | class 1 |
| C27G G22C | class 0 |
| C14U C9G | class 1 |
| C33U C9G | class 1 |
| A16U U12A | class 1 |
| C15G U18C | class 1 |
| C14G G34C | class 1 |
| A17U G30U | class 0 |
| A10U G35C | class 0 |
| G35U G53A | class 1 |
| C33G C52A | class 1 |
| G30C G47C | class 0 |
| A8U G48A | class 0 |
| G50C U43A | class 1 |
| A7U C11G | class 0 |
| C27U C52G | class 1 |
| A28U C33U | class 1 |
| A41C G48A | class 1 |
| A41C C31U | class 1 |
| G13C G34C | class 0 |
| G45C U24G | class 0 |
| A16U G35C | class 1 |
| C21U G23U | class 0 |
| A16U G45A | class 1 |
| G50A G54U | class 1 |
| G13C G50U | class 0 |
| A8C G50U | class 1 |
| C33G U37G | class 1 |
| A10C U37G | class 1 |
| C11G G13C | class 0 |
| C14A C21G | class 0 |
| A16G A41G | class 1 |
| A41U G34U | class 1 |
| G22A G35C | class 1 |
| A29C G35A | class 0 |
| C52U G54A | class 1 |
| C33A G23A | class 0 |
| C26A G42U | class 0 |
| A16G G51U | class 1 |
| A28G G35C | class 1 |
| C32G U18C | class 1 |
| A36U G42A | class 1 |
| G45U G53U | class 0 |
| A10C G34A | class 0 |
| G23C G45U | class 0 |
| C15G G48A | class 0 |
| G23U G34U | class 0 |
| A39G A8U | class 1 |
| A29C C15U | class 0 |
| C25U G35C | class 1 |
| A38G G47U | class 1 |
| C25U G54U | class 1 |
| C26U G50A | class 1 |
| A40C G23A | class 0 |
| C20G C9G | class 1 |
| G44C G50U | class 1 |
| C21U | class 1 |
| C20G C32G | class 0 |
| A39U A8G | class 1 |
| A7G U18G | class 1 |
| G19U U37C | class 1 |
| G13A G50A | class 1 |
| A28G A39U | class 1 |
| A39G G53U | class 1 |
| A8C G49U | class 0 |
| G22C G30A | class 0 |
| A17G A8G | class 1 |
| A40G C15G | class 1 |
| A36C G54C | class 1 |
| C11U C27G | class 0 |
